test system: rabbit skeletal myofibrils (approximately 90% fast fibers); assay: Activation of fast skeletal myofibrils (PUMA coupled-enzyme ATPase assay at pCa25); assay type: biochemical; conditions: concentration at which the compound increased the enzymatic activity by 40%; calcium at pCa25; PM12 buffer pH 6.8
observation_type: Mean AC1.4

{"columns": ["smiles_str", "observation_type", "meas_value"],
 "data": [
  ["O=C(O)c1cccc(-c2cnc(NC[C@]3(c4ncccc4F)C[C@H](F)C3)nc2O)c1", "Mean AC1.4", "D (D=>20 uM)"],
  ["CC(C)(CNc1ncc(-c2cc(C(N)=O)ccc2F)cn1)c1ncccc1F", "Mean AC1.4", "B (B=1-10 uM)"],
  ["Oc1cnc(-c2cnc(NC[C@]3(c4ncccc4F)C[C@H](F)C3)nc2)c(F)c1", "Mean AC1.4", "B (B=1-10 uM)"],
  ["Nc1nc(NC[C@]2(c3ncccc3F)C[C@H](F)C2)ncc1-c1ccccc1", "Mean AC1.4", "B (B=1-10 uM)"],
  ["Fc1cccnc1C1(Nc2ncc3cc(Br)ccc3n2)CCC1", "Mean AC1.4", "D (D=>20 uM)"],
  ["Fc1cccnc1C1(Nc2ncc(-c3ccc4[nH]ncc4c3)cn2)CCC1", "Mean AC1.4", "B (B=1-10 uM)"]
]}

QUERY: Bench note: what Mean AC1.4 did CC(C)(CNc1ncc2c(n1)CCN(C(=O)C(N)=O)C2)c1ccc(F)cc1 show?
RESULT: D (D=>20 uM)

QUERY: Bench note: what Mean AC1.4 did NC(=O)c1ccc(=O)n(-c2cnc(NC[C@]3(c4ncccc4F)C[C@H](F)C3)nc2)c1 show?
RESULT: D (D=>20 uM)

QUERY: Bench note: what Mean AC1.4 did CC(C)(Nc1ncc(-c2cccc(C(N)=O)c2)cn1)c1ncccc1F show?
RESULT: B (B=1-10 uM)

QUERY: Bench note: what Mean AC1.4 did NC(=O)Cc1cnc(-c2cnc(NC[C@]3(c4ncccc4F)C[C@H](F)C3)nc2)s1 show?
RESULT: B (B=1-10 uM)

Ref: patent US11369565B2
